Each item that follows carries a reported pKi.
- target_or_system: IMPDH human type II (Homo sapiens, UniProt P12268)
- protocol_details: IMPDH activity inhibition assay (spectrophotometric, NADH formation at 340 nm)
- Assay type: biochemical
pKi: −log10 of the molar value.

Some entries whose results are on file:
1) COc1cc(NC(=O)Nc2cccc(CNC(=O)Oc3ccc(NC(C)=O)cc3)c2)ccc1-c1cnco1
7.30 to 11.00
2) COC(=O)c1ccc(OC(=O)NCc2cccc(NC(=O)Nc3ccc(-c4cnco4)c(OC)c3)c2)cc1
7.30 to 11.00
3) COc1cc(NC(=O)Nc2cccc(CNC(=O)Oc3ccccc3)c2)ccc1-c1cnco1
7.30 to 11.00

Next up:
Request: pKi for COC(=O)NCc1cccc(NC(=O)Nc2ccc(-c3cnco3)c(OC)c2)c1 ?
Response: 5.00 to 6.00
